These data points were gathered from PubChem BioAssay (NCATS).

tested on: CASKI; experiment: Primary qHTS to identify gynecologic anti-cancer compounds using libraries of approved drugs and bioactive compounds (AID 1345084); details: Gynecologic cancer cell panel viability, ATPlite luminescence, 48 h; series mostly up to 57.5 µM; note: nearly all actives have a fitted effect of over 55% in size
Results filed as inconclusive are left out. Activity calls are given as the source filed them. Calls come from the whole dose curve; as a rule, active = well fitted cell-killing curve with a large enough effect; inconclusive = small, poorly fitted or top-dose-only effect, or effect the other way; inactive = flat fitted curve, though single readings scatter.
# output must be one of yes = active, no = inactive

Take a look at these entries with their results.
NCCCCCNC1(c2ccccc2)CCCCC1; no
CN1C(=O)[C@@H](Cc2c[nH]c3ccccc23)N=C(c2ccccc2F)c2ccccc21; no
CN(Cc1cccc(-c2ccncc2)c1)C(=O)Oc1ccc(-c2ccc(C(N)=O)cc2)cc1; no
CC(=O)O[C@H]1C[C@]2(O)[C@@H]3CC[C@@H]4C[C@@H](O)CC[C@]4(C)[C@H]3CC[C@]2(C)[C@H]1c1ccc(=O)oc1; yes
CN1C(=O)CN=C(c2ccccc2Cl)c2cc(Cl)ccc21; no
C=CC/C=C\C/C=C\CCCCCCCc1cc(O)cc(O)c1; no
CC/C=C/C=C/C1(C)OC(OC)=C(C(=O)C2C(C)C(=O)c3cc(OC)c(O)c(O)c3C2(C)O)C1=O (stereo not drawn); no
N#Cc1ccccc1-c1cc(-c2ccccn2)cn(-c2ccccc2)c1=O; no
C[C@]12CC[C@H](OC3OC(CO)C(O)C(O)C3OC3OC(CO)C(O)C(O)C3O)C[C@@H]1CC[C@@H]1C2CC[C@]2(C)[C@@H](C3=CC(=O)OC3)CC[C@]12O (stereo partly drawn); no
Cc1ccc(-n2nccn2)c(C(=O)N2CCN(c3nc4cc(Cl)ccc4o3)CCC2C)c1 (stereo not drawn); no

Exercise: Please share the test call associated with C/C=C(/C)C1C=CC2CC(C)CC(C)C2C1/C(O)=C1\C(=O)NC(CC(C)(O)C(=O)O)C1=O (stereo not drawn) .
Solution: no

Exercise: Please share the test call associated with "C[C@@H](CN1CCC(n2c(=O)[nH]c3cc(Br)ccc32)CC1)NC(=O)[C@@H]1C[C@H]1c1ccccc1" .
Solution: no

Exercise: Please share the test call associated with "C[C@]12CC[C@H](O)C[C@@H]1CC[C@@H]1[C@@H]2CC[C@]2(C)C(=O)CC[C@@H]12" .
Solution: no

Exercise: Please share the test call associated with "Cc1cccc(NC(=O)N[C@H]2CN(C)c3ccccc3C(c3ccccc3)=N2)c1" .
Solution: no

Exercise: Please share the test call associated with CN1C(=O)C(Cc2ccc3ccccc3c2)N=C(c2ccc(O)cc2)c2cc(Cl)ccc21 (stereo not drawn) .
Solution: no

Exercise: Please share the test call associated with "COc1ccc(CN(C(=O)[C@@H](N)Cc2c(C)cc(C(N)=O)cc2C)[C@@H](C)c2ncc(-c3ccccc3)[nH]2)cc1C(=O)O" .
Solution: no

* * *

assay: Confirmatory qHTS to identify inhibitors of SARS-CoV-2 cell entry (AID 1645844); conditions: SARS-CoV-2 pseudotyped particle cell entry, luciferase; series mostly up to 57.2 µM; note: potency is the fitted concentration of half-maximal effect; nearly all actives have a fitted effect of over 45% in size
Records with an inconclusive call do not appear. Active and inactive are the calls of the source. The call rests on the fitted dose curve.
measured_parameter: Potency

Please review the following examples before continuing.
Nc1ccc(C(=O)Nc2cccc(-c3nc(N4CCOCC4)c4oc5ncccc5c4n3)c2)cn1; 0.192 µM (active)
Cc1cccc(Nc2nc(-c3ccncc3)cs2)c1; 4.29 µM (active)
O=C(Cc1ccc(-c2ccc(OCCN3CCOCC3)cc2)cn1)NCc1ccccc1; 0.136 µM (active)
COc1cc(C)c(Sc2cnc(NC(=O)c3ccc(CNC(C)C(C)C)cc3)s2)cc1C(=O)N1CCN(C(C)=O)CC1 (configuration not stated); 9.61 µM (active)
CN1c2ccccc2C(=O)N2CCc3c([nH]c4ccccc34)C21 (configuration not stated); 6.81 µM (active)

Exercise: Report Potency for "CO[C@H]1C(=O)[C@]2(C)[C@@H](OC)C[C@H]3OC[C@@]3(OC(C)=O)[C@H]2[C@H](OC(=O)c2ccccc2)[C@]2(O)C[C@H](OC(=O)[C@H](O)[C@@H](NC(=O)OC(C)(C)C)c3ccccc3)C(C)=C1C2(C)C" please.
Solution: 0.0482 µM (active)

Exercise: Report Potency for "C[N+](C)([O-])CCNc1ccc(NCC[N+](C)(C)[O-])c2c1C(=O)c1c(O)ccc(O)c1C2=O" please.
Solution: 19.2 µM (active)

* * *

test: qHTS for Inhibitors of the Functional Ribonucleoprotein Complex (vRNP) of Lassa (LASV) Arenavirus: LASV Primary Screen - GLuc reporter signal (AID 1347082); conditions: LASV minigenome vRNP, Gaussia luciferase reporter; series mostly up to 57.5 µM; note: nearly all actives have a fitted effect of over 60% in size
Results filed as inconclusive are left out. Calls of active or inactive are those of the source. Calls follow the shape of the full dose curve; tested in HEK293 reporter line.
# output must be one of active, inactive

Take a look at these entries with their results.
CC[C@H](CC#N)OC(=O)N[C@@H](C)c1cccc(NC(=O)Nc2ccc(-c3cnco3)c(OC)c2)c1; active
CN(C)CC[C@H](c1ccc(Cl)cc1)c1ccccn1; inactive
N[C@H](CO)C(=O)O; inactive

Exercise: Please share the test call associated with OCC1NCC(O)C(O)C1O (centres undefined) .
Solution: inactive

* * *

test system: Zika virus NS2B-NS3 protease (linked construct); experiment: Primary screen NINDS Rhodamine qHTS for Zika virus inhibitors (AID 1347160); settings: purified NS2B-NS3 protease, Rhodamine110 substrate fluorescence; series mostly up to 57.1 µM; note: nearly all actives have a fitted effect of over 55% in size
Results filed as inconclusive are left out. The source made the active and inactive calls. Calls come from the whole dose curve; as a rule, active = well fitted inhibition curve with a large enough effect; inconclusive = small, poorly fitted or top-dose-only effect; inactive = no such curve, though single readings can be large or run the other way.
# output must be one of active, inactive

Take a look at these entries with their results.
COC(=O)C1=C2Nc3ccccc3[C@@]23CCN2CC(C(C)=O)C1C[C@H]23 (stereo partly specified); active
CCC1C2CC3C4N(C)c5ccccc5C45CC(C2C5O)N3C1O (stereo unspecified); inactive
COc1ccc2[nH]c(-c3ccccc3)c(CCN(C)C)c2c1; inactive
C/C=C(\C)C(O)C(C)/C=C(C)/C=C/C/C(C)=C/Cc1nc(OC)c(OC)c(O[C@@H]2O[C@@H](C)[C@H](O)[C@@H](O)[C@H]2O)c1C (stereo partly specified); inactive
CCN1C[C@]2(C)CC[C@H](O)[C@]34C1C(C[C@H]23)[C@@]12CC[C@H](CC14)[C@](O)(COC(=O)c1ccc(OC)c(OC)c1)[C@H]2O (stereo partly specified); inactive

Please find the next compound below.
Exercise: Please share the test call associated with CCN1C[C@]2(COC)CC[C@H](O)[C@@]34C5C[C@@H]6[C@@H](OC)C[C@@](OC(C)=O)(C5[C@@H]6OC(C)=O)[C@H]([C@H](OC)C23)[C@@H]14 (stereo partly specified) .
Solution: inactive

* * *

tested on: CRL-7250; experiment: Cytotoxic Profiling of Annotated Libraries Using Quantitative High-Throughput Screening (AID 1296008); conditions: Five cell lines viability, CellTiter-Glo ATP luminescence, 48-72 h; stronger effect = lower value; note: % is set by controls: 0 for no effect and ±100 for the full control effect; nearly all actives have a fitted effect of over 60% in size
Records with an inconclusive call do not appear.
measured_parameter: max response (%)
Give just the number in %; leave the unit off.

C=C(CO)C(=O)O[C@H]1CC(=C)[C@@H]2C[C@H](O)C(=C)[C@@H]2[C@H]2OC(=O)C(=C)[C@@H]21; -4.04
COC(=O)C12C(=O)C(C)(O)C(=O)C1(C)C(C)=CC1C3(C=O)CCC(OC(C)=O)C(C)(C)C3CCC12C (stereo not given); -2.11
O=C1N[C@@H](Cc2ccccc2)CN2CCCC[C@@H]12; -11.6
CCCCN1[C@@H]2CC[C@H]1CC(OC(c1ccc(F)cc1)c1ccc(F)cc1)C2 (stereo not given in full); -21.5
CN1CCCCC1Cn1cc(C(=O)c2cc([N+](=O)[O-])ccc2I)c2ccccc21 (stereo not given); 2.06
O=C(OC[C@H]1O[C@@H](Oc2ccc(O)cc2CO)[C@H](O)[C@@H](O)[C@@H]1O)c1ccccc1; 2.78
C=C[C@H]1CN2CCC1C[C@H]2[C@H](O)c1ccnc2ccccc12 (stereo not given in full); -4.97
COC(=O)[C@]12CCCC(C)(C)C1CCc1cc(C(C)C)c(O)c(O)c12 (stereo not given in full); -0.302

Exercise: Report max response for "C1=C(c2cnc[nH]2)c2ccsc2CC1" please.
Solution: 4.29

Exercise: Report max response for "CN1CCN(c2nc3ccccc3nc2Cl)CC1" please.
Solution: -8.1

Exercise: Report max response for CN1C(=O)[C@]23CC4C(C)(C)[C@@]5(C[C@@]41CN2CC[C@@]3(C)O)C(=O)Nc1c5ccc2c1OC=CC(C)(C)O2 (stereo not given in full) please.
Solution: -5.32

* * *

biological target: Cytochrome P450 2C9 (Homo sapiens) (UniProt P11712); assay: qHTS Assay for Inhibitors and Substrates of Cytochrome P450 2C9 (AID 883); conditions: recombinant CYP2C9, luciferin-H luminescence, 60 min; series mostly up to 57.1 µM; note: % is set by controls: 0 for no effect and ±100 for the full control effect; nearly all actives have a fitted effect of over 60% in size
Sequence (P11712 whole entry, looked up): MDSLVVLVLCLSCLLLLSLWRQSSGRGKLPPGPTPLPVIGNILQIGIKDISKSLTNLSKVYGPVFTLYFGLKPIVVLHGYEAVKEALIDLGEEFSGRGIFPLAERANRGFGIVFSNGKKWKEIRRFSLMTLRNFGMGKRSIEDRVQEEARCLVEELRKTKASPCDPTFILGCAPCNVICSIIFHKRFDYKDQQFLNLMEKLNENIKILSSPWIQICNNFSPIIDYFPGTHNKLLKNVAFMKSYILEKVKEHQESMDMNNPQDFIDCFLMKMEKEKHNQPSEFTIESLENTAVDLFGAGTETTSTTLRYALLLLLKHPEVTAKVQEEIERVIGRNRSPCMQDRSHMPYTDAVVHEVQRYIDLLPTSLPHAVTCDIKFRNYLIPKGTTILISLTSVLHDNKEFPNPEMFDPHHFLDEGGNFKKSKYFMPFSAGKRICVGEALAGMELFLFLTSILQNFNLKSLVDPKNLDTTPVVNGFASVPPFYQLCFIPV
Results filed as inconclusive are left out. The source made the active and inactive calls. Calls follow the shape of the dose curve; as a rule, active = well fitted inhibition curve with a large enough effect; inconclusive = small, poorly fitted or top-dose-only effect; inactive = no such curve, though single readings can be large or run the other way.
measured_parameter: outcome

Cc1c(C(=O)c2ccc3ccccc3c2)c2cccc3c2n1[C@H](CN1CCOCC1)CO3; inactive
N[C@H](CCCCCP(=O)(O)O)C(=O)O; inactive
Nc1nc2ccc(Cl)cc2c2nc(-c3ccco3)nn12; inactive
